# Tested on: HLA-C*08:02
# Method: IEDB peptide-MHC binding, purified MHC/direct/fluorescence; filed as Kd, often an IC50 or EC50 that approximates it; bounds were set here for any values at or beyond the usual limits of such assays
# Stated conditions: source organism: Escherichia coli APEC O1
Property name: Kd

Value lookup for Kd; key = YTTDVNQLY
1.01 µM

###

# Tested on: HLA-A*02:01
# Method: IEDB peptide-MHC binding, purified MHC/competitive/radioactivity; filed as Kd, often an IC50 or EC50 that approximates it; bounds were set here for any values at or beyond the usual limits of such assays
# Stated conditions: source organism: Human immunodeficiency virus type 1 (CLONE 12)
Property name: pKd
Answer as the number alone; pKd is minus log10 of concentration in mol/L.

# input sequence: PLTFGWCYKL ; wanted: its pKd
5.16

###

# Tested on: HLA-A*24:02
# Method: IEDB peptide-MHC binding, purified MHC/competitive/fluorescence; bounds were set here for any values at or beyond the usual limits of such assays
# Stated conditions: source organism: Homo sapiens
pIC50: −log10 of the molar value.
Property name: pIC50

Record request: pIC50 value, item ILNRETLLDFV
≤ 4.70

###

# Tested on: HLA-A*68:01
# Method: IEDB peptide-MHC binding, purified MHC/competitive/radioactivity; filed as Kd, often an IC50 or EC50 that approximates it; bounds were set here for any values at or beyond the usual limits of such assays
# Stated conditions: source organism: Dengue virus 1 Brazil/97-11/1997
Property name: pKd
Friendly reminder that pKd comes from taking -log10 of the concentration in mol/L.

Sample MLVTPSMAMR — what was its pKd?
7.49

###

# Tested on: HLA-A*30:01
# Method: IEDB peptide-MHC binding, purified MHC/direct/fluorescence; filed as Kd, often an IC50 or EC50 that approximates it; bounds were set here for any values at or beyond the usual limits of such assays
# Stated conditions: source organism: Giardia lamblia ATCC 50803
Property name: Kd (nM)
Just the number in nM, nothing appended.

Query: Kd; subject: KTPWDRFCK
21.8

###

# Tested on: HLA-B*46:01
# Method: IEDB peptide-MHC binding, purified MHC/direct/fluorescence; filed as Kd, often an IC50 or EC50 that approximates it; bounds were set here for any values at or beyond the usual limits of such assays
# Stated conditions: source organism: Yellow fever virus
pKd: −log10 of the molar value.
Property name: pKd

Look at this sequence and give its reported pKd. PHAATIRVL
≤ 4.70

###

# Tested on: HLA-A*24:03
# Method: IEDB peptide-MHC binding, purified MHC/direct/fluorescence; filed as Kd, often an IC50 or EC50 that approximates it; bounds were set here for any values at or beyond the usual limits of such assays
# Stated conditions: source organism: Camelpox virus M-96
Property name: pKd
Lab note: report pKd as minus log10 of the concentration in molar units, number only.

# Residue string, pKd
data = [
    ("KYFDDVTAF", 8.26),
]

// below: pKd requested for another sequence
I would be grateful if you could share the reported pKd for NYFNRMFHF .
8.37

###

# Tested on: HLA-A*03:01
# Method: IEDB peptide-MHC binding, purified MHC/direct/fluorescence; filed as Kd, often an IC50 or EC50 that approximates it; bounds were set here for any values at or beyond the usual limits of such assays
# Stated conditions: source organism: Vibrio cholerae O1 biovar El Tor
Property name: Kd

Value lookup for Kd; key = FATPAFFLI
≥ 20 µM
